system_name: human 15-PGDH (Homo sapiens, UniProt P15428)
Construct: comprising residues 3–256 of the human HPGD gene (GenBank identifier: 1203982); His6 (GHHHHHH, behind the TEV site) (C, cleaved yes); made in house; host or cells: E. coli BL21(DE3)-R3
Sequence (P15428 3-256): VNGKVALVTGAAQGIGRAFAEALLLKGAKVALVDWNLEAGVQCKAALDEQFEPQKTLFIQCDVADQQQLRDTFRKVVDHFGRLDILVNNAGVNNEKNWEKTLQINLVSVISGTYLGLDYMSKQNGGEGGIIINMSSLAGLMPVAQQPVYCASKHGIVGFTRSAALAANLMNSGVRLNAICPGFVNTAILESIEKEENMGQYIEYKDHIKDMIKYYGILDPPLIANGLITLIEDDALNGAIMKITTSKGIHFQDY
experiment: Differential scanning fluorimetry (DSF), thermal stabilization
Type: binding
condition_label: with 200 µM NAD+; 1 µM protein, compound 50 or 250 µM; N/A = no unfolding transition observed in DSF
Assign a class from recorded ∆Tm [°C] NAD+; defined classes: low bin (below 2 °C), mid bin (2 °C to below 4 °C), high bin (4 °C or more)

compound=Cc1cc(NC(=O)COC(=O)c2cccc(S(=O)(=O)NC(C)(C)C)c2)no1 cat="mid bin"
compound=COc1ccc(C(=O)OCC(=O)Nc2c(C)cccc2C)cc1S(=O)(=O)N(C)C cat="high bin"
compound=O=C(O)CC1(CO)CC1 cat="mid bin"
compound="CN(C)C(=O)C(NCCc1c[nH]c2ccccc12)c1ccccc1 (centres unmarked)" cat="mid bin"
compound=COCCNC(=O)c1cc2oc3ccccc3c2n1C cat="mid bin"
compound=C=CCN1C(=O)[C@@H](CC(=O)Nc2cc(C)ccc2C)SC1=Nc1cc(C)cc(C)c1 cat="mid bin"
compound=O=c1c2ccccc2sn1-c1cc(S(=O)(=O)N2CCOCC2)ccc1N1CCCC1 cat="mid bin"
compound=Cc1cc(C(=O)N2CCN(C)CC2)c(C)n1C1CC1 cat="high bin"
compound=CCN(CC)C(=O)c1sc2nc(-c3cccs3)cc(-c3ccc(Cl)cc3)c2c1N cat="low bin"
compound="COc1ccc(C2C(C(=O)O)c3ccccc3C(=O)N2Cc2ccccc2)cc1 (centres unmarked)" cat="low bin"
compound=O=C(c1ccc(COc2ccccc2Br)cc1)N1CCCCC1 cat="high bin"
compound="CCCC(NC(=O)Cn1c(-c2cccs2)n[nH]c1=S)c1ccccc1 (centres unmarked)" cat="low bin"

The reported measurements were obtained from paper PMC2970562.
